target.under.test: HDAC11 (Homo sapiens, UniProt Q96DB2)
Sequence (Q96DB2 whole entry): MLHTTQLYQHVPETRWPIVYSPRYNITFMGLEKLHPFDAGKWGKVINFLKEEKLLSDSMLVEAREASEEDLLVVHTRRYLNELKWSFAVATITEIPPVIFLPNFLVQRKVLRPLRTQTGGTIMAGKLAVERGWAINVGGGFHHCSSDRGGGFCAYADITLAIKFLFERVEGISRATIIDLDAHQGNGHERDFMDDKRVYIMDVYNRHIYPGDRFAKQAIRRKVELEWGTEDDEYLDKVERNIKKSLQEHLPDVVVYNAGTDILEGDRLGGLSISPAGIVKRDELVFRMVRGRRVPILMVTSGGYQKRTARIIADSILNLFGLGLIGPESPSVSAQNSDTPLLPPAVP
protocol.description: HDAC11 inhibition, continuous fluorescence-based assay with fatty-acylated peptide substrate
Assay type: biochemical
condition.details: substrate Ac-EALPK(11-Abz-Aun)KY(3-NO2)GG-NH2 20 µM; triplicate; read-out: IC50 against HDAC11
metric.name: pIC50
Give bare numbers, as −log10 of the molar value.

Illustrative cases are given below, each with its answer.
compound	endpoint.result
CCCCCCCCCCCCSC[C@@H](N)C(=O)NCCCC[C@H](NC(=O)[C@H](CCCCN)NC(=O)CCC(=O)NCCCOCCOCCOCCCNC(=O)c1ccc2c(c1)C(=O)OC21c2ccc(O)cc2Oc2cc(O)ccc21)C(N)=O [Compound 32]	6.27
CCCCCCCCCCSC[C@@H](N)C(=O)NCCCCC [Compound 27]	6.82
CCCCCCCCCCCCSC[C@@H](N)C(=O)NCCCCC [Compound 28]	7.25

Below are some compounds; for each one, tell me its pIC50.
1. CCCCCCCCSC[C@@H](N)C(=O)NCCCCC [Compound 26]
2. CCCCCCSC[C@@H](N)C(=O)NCCCCC [Compound 25]

-- reply
1. 6.40
2. 6.04
